System: Candida albicans
EXPERIMENTAL_DETAILS: In vitro concentration causing 50% inhibition of Candida albicans with percentage of resistant strains %R = 0 (MIC > 64 ug/mL) at a range of 0.016-0.5 ug/mL
Format: functional
Please provide measured MIC50 for the entries that follow.
Numbers only, in µg/mL.

Observe how each entry below is paired with its result.
INSERT INTO results (compound, readout_units, numeric_readout) VALUES
  ('C=Cn1cc(-c2ccc(Cl)cc2)c(C(c2ccccc2)n2ccnc2)c1 (centres undefined)', 'µg/mL', 0.032),
  ('C=CCn1cc(-c2ccc(Cl)cc2)c(C(c2ccccc2)n2ccnc2)c1 (centres undefined)', 'µg/mL', 0.016),
  ('Clc1ccc(-c2cn(CC3CC3)cc2C(c2ccccc2)n2ccnc2)cc1 (centres undefined)', 'µg/mL', 0.016);

Now, please, on to the next compound.
Using the record for CCCn1cc(-c2ccc(Cl)cc2)c(C(c2ccccc2)n2ccnc2)c1 (centres undefined) , report its MIC50.
0.016
